Where do these numbers come from? They come from the nanobody polyreactivity screen of Harvey et al. (2022).

- assay-explanation: yeast display, Sf9 membrane polyspecificity reagent, FACS + sequencing; frameworks hold sequencing errors
property-label: polyreactivity (PSR sort gate)

primary-sequence	polyreactivity (PSR sort gate)
QVQLVESGGGLVQAGGSLRLSCAASGSTFWTNAMGWYRQAPGKERELVAVISRGGSTNYADSVKGRFTISRDNAKNTVYLQMNSLKPEDTAVYYCAAASYLYGRYYYWGQGTQVTVSS	high polyreactivity
QVQLLESGGGLVQAGGSLRLSCAASGFSFEYYAMGWSRQAPGKDRELVAAIRSVSGTNYADSVKGRFTISRDNAKNTVYLQMNSQKPEDTAVYYCAKLRYPYLFLDDSEYWGQRTQVTVSS	low polyreactivity
QVQLVESGGGLVQAGGSLRLSCAASGFTFPYYAVGWYRQAPGKERELVAAISKGGTRTYYADSVKGRFTISRDNAKNTVYLQMNSLKPEDTAVYYCAATRIYQEMDYWGQGTQVTVSS	high polyreactivity
QVQLVESGGGLVQEGGSLSLSCAASGITFRSYTMGWYRQAPGKERELLAGITRRGGSTFYADSVKGRFTISRDNATNTVYLQMNSLNPEDTAVYFCAVGFYYLSSWYSYDYRGQGTQVTVSS	high polyreactivity
QVQLVESGGGLVQAGASLRLSCAASGIILHYYAMGGYRQAPGKERELVAAISARGGRTYYADSVKGRFTISRDNAKNTVYLQMNSLKPEDTAVYYCARYLRRSSPSPGYGYWGQGTQVTVSS	high polyreactivity

Exam item: Look up polyreactivity (PSR sort gate) for this sequence: QVQLVESGGGLVQAGGSLRLSCAASGSIFNHYAMGWYRQAPGKERELVATITDGGSTYYADSVKGRFTISRDNAKNTVYLQMNSLKPEDTAVYYCATDRRRFWVIYYYWGQGTQVTVSS
Marked response: low polyreactivity

Exam item: Entry QVQLVESGGGLVQAGGSLRLSCAASGSIFAYNAMGWYRQAPGKERELVAAITRSGVNTYYADSVKGRFTISRDNAKNTVYLQMNRLKPEDTAVYYCNAVFWGLQKWPQ please
Marked response: low polyreactivity

---

- assay-explanation: yeast display, Sf9 membrane polyspecificity reagent, FACS + sequencing; frameworks hold sequencing errors
property-label: polyreactivity (PSR sort gate)

primary-sequence	reading
QVQIVESGGGLVQAGGSLRLSCPASGLTFAWYAMGWYRQAPWTERELVAAINRSGGSTSYADSVKGRFTISRDNAMNTVYLQMNSLKPEDTAVYYCAAQLGYTTLGLIYWGQGTQVTVSS	low polyreactivity
QVQLVESGGGLVHAGGSLRLSCAASGIILDYNAMGWYRQAPGKERELVAAITWSGSSTFYADTVKGRYTISHDNSKNTVYLQMNSLKPEDTAVYYCNADYFWGTYANFDYWGQCTQVTVSS	low polyreactivity
QVQLQESGGGLVEAGGTLRLSCAASGSYSADEDMGWYRQAQGKEREFVAGISVGGNTNYADSVKGRFTSSRENAKNSLFLQINSLKPEDTAVYYCAVLPDVYDALDYWAQGTQVTVSS	high polyreactivity
QVQLVETGGGLVQAGGSLRLSCAASGSILYYKPMGWYRQAPGKERELVASISLTGGSTTYADSVKGRFTISRDNAKNTVYLQMNSLKPEDTAVYYCNATQYPAADRSTNNYGGGFDSWGQGTQVTVSS	low polyreactivity
QVQLVESGGGLVQAGGSLRLSCAASGIIFGRYAMGWYRQAPGKERELVAAISGSGGITYYADSVKGRFTISRDNAKNTVYLQMNSLKPEDTAVYYCATRKYLTYNYWGQGTQVTVSS	high polyreactivity

Now turn to the next sequence.
Exam item: Look up polyreactivity (PSR sort gate) for this sequence: QVQLVESGGGLVQAGGSLRLSCAASGSNFAVYAMGWYRQAPGKERELVAAISFSGGSTYYADSVKGRFTISRDNAKNTVYLQMNSLKPEDTAVYYCAADPWWTRTDLDYWGQGTQVTVSS
Marked response: low polyreactivity
